SYSTEM_NAME: Follistatin (Homo sapiens)
METHOD_DESCRIPTION: follistatin binders on small-molecule microarrays, primary screen, biochemical, small-molecule microarray, 635/667 nm fluorescence (AID 1132)
CONDITION_INFO: FST binding, 635 nm fluorescence, higher = more signal
MEASURED_ATTRIBUTE: composite z-score
Note: the reply should be a number with no unit written.

Q: Give reported composite z-score for COCCOC(=O)N1C(=O)[C@@]2(c3cc(C#Cc4ccc(OC)cc4)ccc31)[C@H](c1ccccc1OCCO)N1[C@H](c3ccccc3)[C@H](c3ccccc3)OC(=O)[C@H]1[C@@H]2C(=O)N1CCN(c2ncccn2)CC1 (Follistatin (Homo sapiens))
A: 0.803

Q: Provide measured composite z-score on Follistatin (Homo sapiens) for CC(C)C(CO)N1C(=O)[C@@H]2[C@H]3C(=O)OCC=C[C@H]3OC23C=CCN(C(C)C)C(=O)[C@@H]13 (some centres undefined) please.
A: 0.405

Q: Report composite z-score on Follistatin (Homo sapiens) for this entry: C=CC[C@@]1(C(=O)NCc2ccccc2)N=C(c2ccc(OCCCO)cc2)O[C@@H]1c1ccccc1N=[N+]=[N-]
A: 1.28

Q: // output composite z-score; input C=C(CCCC)C(=O)CC[C@H](OC(C)=O)c1cccc(OCCO)c1 ; system Follistatin (Homo sapiens)
A: -0.732

Q: Answer briefly: composite z-score recorded on Follistatin (Homo sapiens) for [N-]=[N+]=NCc1ccccc1C[C@]1(C(=O)O)N=C(c2ccc(OCCCO)cc2)O[C@H]1c1ccccc1N=[N+]=[N-]
A: 1.1

Q: Quote composite z-score with test system Follistatin (Homo sapiens) for CCCC[C@@H]1C[C@H]1[C@@H](NC(=O)c1ccco1)c1ccc(Cl)cc1
A: 0.0863
